# SYSTEM: human ether-à-go-go-related gene (hERG) potassium channel (human, UniProt Q12809);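 also: peak tail current of the secondary pulse compared with the same well before compound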
# Sequence (Q12809 whole entry, looked up): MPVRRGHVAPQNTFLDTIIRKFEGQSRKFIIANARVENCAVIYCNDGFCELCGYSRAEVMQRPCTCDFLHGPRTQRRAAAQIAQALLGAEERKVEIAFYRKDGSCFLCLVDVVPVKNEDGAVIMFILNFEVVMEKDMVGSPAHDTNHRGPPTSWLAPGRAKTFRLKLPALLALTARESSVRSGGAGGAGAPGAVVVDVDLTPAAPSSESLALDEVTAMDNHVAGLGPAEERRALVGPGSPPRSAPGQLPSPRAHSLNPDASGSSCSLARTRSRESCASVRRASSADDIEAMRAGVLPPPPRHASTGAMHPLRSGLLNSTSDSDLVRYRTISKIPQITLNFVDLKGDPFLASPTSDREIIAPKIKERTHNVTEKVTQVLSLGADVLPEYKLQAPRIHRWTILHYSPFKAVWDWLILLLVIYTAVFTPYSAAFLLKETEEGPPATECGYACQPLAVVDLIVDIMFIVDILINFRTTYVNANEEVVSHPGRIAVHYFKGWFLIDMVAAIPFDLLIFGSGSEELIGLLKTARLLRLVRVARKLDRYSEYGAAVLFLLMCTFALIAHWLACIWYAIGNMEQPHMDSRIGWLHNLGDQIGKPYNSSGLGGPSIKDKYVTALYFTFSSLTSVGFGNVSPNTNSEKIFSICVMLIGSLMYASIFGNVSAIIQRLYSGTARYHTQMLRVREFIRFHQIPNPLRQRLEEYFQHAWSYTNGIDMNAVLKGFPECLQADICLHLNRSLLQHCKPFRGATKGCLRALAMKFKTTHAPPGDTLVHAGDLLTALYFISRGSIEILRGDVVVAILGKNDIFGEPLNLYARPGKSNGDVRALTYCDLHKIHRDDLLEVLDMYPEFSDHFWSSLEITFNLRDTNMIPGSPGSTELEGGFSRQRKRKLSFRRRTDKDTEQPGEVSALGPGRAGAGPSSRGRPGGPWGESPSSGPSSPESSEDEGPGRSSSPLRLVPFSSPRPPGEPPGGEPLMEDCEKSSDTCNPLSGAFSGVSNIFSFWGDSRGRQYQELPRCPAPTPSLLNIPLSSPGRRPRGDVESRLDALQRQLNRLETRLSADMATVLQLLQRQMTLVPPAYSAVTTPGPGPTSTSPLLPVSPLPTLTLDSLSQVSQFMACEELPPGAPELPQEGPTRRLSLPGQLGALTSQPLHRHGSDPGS
# EXPERIMENT_DESCRIPTION: primary screen, population patch clamp on CHO cells stably expressing hERG; higher = less effect of the substance
The whole screen tested about 310,000 compounds, of which about 14,000 (4.5%) showed an effect of 50% or more. The effect is printed as a negative number. Shown is part of a subset that was picked to be rich in strong results.
MEASURED_PARAMETER: hERG current change (%, negative = inhibition) at 10uM (%)
# output: bare number, implied unit %

Below: 5 compounds and their reported hERG current change (%, negative = inhibition) at 10uM.
Prompt: Which hERG current change (%, negative = inhibition) at 10uM value belongs to N/C(Cc1nc(-c2ccc(F)cc2)cs1)=N\O ?
Response: 13.7

Prompt: What would you report for COc1ccc(-c2noc(CCC(N)=O)n2)cc1OC ?
Response: 3.66

Prompt: Try COc1ccc(N2CC(C(=O)Nc3ccc4c(c3)OCCO4)CC2=O)cc1 (stereo not shown) next.
Response: 4.94

Prompt: Likewise for COc1ccc(/C(O)=C2/C(=O)C(=O)N(CCN(C)C)C2c2ccc(F)cc2)cc1Cl (stereo not shown) ?
Response: 13.8

Prompt: Same question for CC1CCN(S(=O)(=O)c2ccc(NC(=O)[C@@H]3CCCC[C@@H]3C(=O)O)cc2)CC1 please.
Response: 9.64

More entries:
Prompt: Consider the compound CCOc1ccc(Cl)cc1CNCCNCCO.Cl and give its measured hERG current change (%, negative = inhibition) at 10uM.
Response: 24.3

Prompt: Now this one: CCNCc1ccc(OCc2ccccc2F)c(OC)c1.Cl
Response: -11

Prompt: Another compound: CCOC(=O)C1CCN(C(=O)Nc2ccc3oc(C)nc3c2)CC1
Response: 7.35

Prompt: Moving on to CCOC(=O)N1CCN(C(=O)C(CC(C)C)NS(=O)(=O)c2ccc3c(c2)oc(=O)n3C)CC1 (stereo not shown)
Response: -12.4

Prompt: Next: CC(C)(C)NCc1cc(Cl)ccc1OCc1ccccc1F.Cl
Response: -43.3
